The reader will find reported aptazyme ON/OFF ratio values listed item by item below.
B1: Pistol ribozyme (parent)
chain: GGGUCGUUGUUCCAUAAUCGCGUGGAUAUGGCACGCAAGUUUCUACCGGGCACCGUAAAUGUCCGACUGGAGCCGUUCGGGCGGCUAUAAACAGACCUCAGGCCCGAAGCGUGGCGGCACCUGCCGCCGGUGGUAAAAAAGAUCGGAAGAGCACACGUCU

Variants of: B1
Assay: aptazyme ON/OFF ratio, guanine; higher = stronger switching; co-transcriptional cleavage with and without guanine
Output spec: single numeric token, no unit.

# annotated cases, reported aptazyme ON/OFF ratio shown
var | aptazyme ON/OFF ratio
U7C U8A U10A U11A C12A C13U | 1.31
U7C U8C G9C U11G C12G C13A | 1.1
U7G U8A G9U U10A U11C C12A C13U | 1.05
U7G U11A C12A C13U | 1.22
U7A U8C G9C U10G C12A | 1.07

QUERY: // returns reported aptazyme ON/OFF ratio for input U7G G9A U10C C12A C13U
RESULT: 1.15

QUERY: Cool, now U8G G9C U11G C13A
RESULT: 1.05

QUERY: U7G U8A G9U U10C C12G C13G ?
RESULT: 1.29

QUERY: U7C U8G G9A U10G U11C C12A C13U , same question.
RESULT: 1.25

QUERY: Another variant: G9A U10G C12U C13A
RESULT: 1.37
